tested on: HepG2 cells; test: BrdU incorporation cell proliferation assay; assay type: cell-based; settings: Homo sapiens, HepG2, read-out: IC50, BrdU incorporation in HepG2 cells
recorded-endpoint: IC50

Reported IC50, molecule CC(=N)S [thioacetamide] : ____
57 mM

Entry source: patent US20020110808A1
